In this section, each of the compounds is paired with its reported Liver Stage / Hepatocyte Toxicity.
- System: HepG2
- measurement notes: Hepatocyte toxicity
- Assay type: cell-based, human
- condition set: toxicity fold shift for the liver stage (hepatocyte toxicity vs liver stage EC50)

Look over these answered cases.
> print(dat)
                                   compound  assay.system  result
1  COC(=O)c1ccc(C2C3=C(O)CC(c4ccc(F)cc4)CC3=Nc3ccccc3N2C(=O)c2ccccc2)cc1 (centres unmarked) [MMV011438]         HepG2    > 80
2  Cc1ccc(S(=O)(=O)n2cc(-c3ccnc(N)c3)c3cc(Br)cnc32)cc1 [MMV024114]         HepG2    1.58
3  CCN(CC)S(=O)(=O)c1ccc(-c2csc(Nc3ccc(C)c(C)c3)n2)cc1 [MMV009108]         HepG2     > 1
4  Nc1ccc(-c2nc3cc(Cc4ccc5[nH]c(-c6ccc(N)cc6)nc5c4)ccc3[nH]2)cc1 [MMV665943]         HepG2    2.40
5  O=C(NCC(CCCN1CCC(c2c[nH]c3ccccc23)CC1)c1ccccc1)Nc1ccc(Cl)c(Cl)c1 (centres unmarked) [MMV029272]         HepG2    2.98

Can you look up Liver Stage / Hepatocyte Toxicity on HepG2 for OC(CNC1CCCCC1)Cn1c2ccc(I)cc2c2cc(I)ccc21 (centres unmarked) [MMV665882] ?
4.34

Can you look up Liver Stage / Hepatocyte Toxicity on HepG2 for c1cc(-c2cnc3ccc(-c4ccc(N5CCOCC5)cc4)nn23)ccn1 [MMV668311] ?
2.27

Can you look up Liver Stage / Hepatocyte Toxicity on HepG2 for COc1ccc(N2CCN(C(CNC(=O)C3CCCCC3)c3ccc4c(c3)OCO4)CC2)cc1 (centres unmarked) [MMV019662] ?
> 2.65

###

In this section, each of the compounds is paired with its reported EC50.
- System: hsp90 (D88Y, parent Dd2)
- measurement notes: Cross-resistance EC50 assay, hsp90
- Assay type: cell-based
- condition set: Plasmodium falciparum, DD2; SYBR green 72 hour assay; synchronized parasites; 384-well format; HSP90 strain
Response body: numeric value in nM, unit text excluded.

Look over these answered cases.
> print(dat)
                           substance.smiles              assay.system  readout.unit  numeric.result
1      CN(C)CCCNCc1ccc(-c2ccc(Cl)c(Cl)c2)o1  hsp90 (D88Y, parent Dd2)            nM             322
2  COc1ccc2c3c([nH]c2c1)[C@H](CO)N(C(C)=O)CC31CCN(C(=O)Nc2ccccc2F)CC1  hsp90 (D88Y, parent Dd2)            nM              94

Lab note: next compound to report on.
Fill in the blank: the reported EC50 of COc1ccc(NC(=O)N2CCCCN3[C@H](CN)[C@H](c4ccc(C#Cc5ccccc5)cc4)[C@@H]3C2)cc1 is ____.
17

###

- Test system: HepG2
- measurement notes: Hepatocyte toxicity
- Type: cell-based, human
- condition set: hepatocyte toxicity / 3D7 EC50
In this section, each of the compounds is paired with its reported EC50 fold shift compared to asexual stage: Hepatocyte Toxicity.
Provide a numeric answer; units are not to be included.

Look over these answered cases.
> print(dat)
                                   compound  assay.system  numeric.result
1  O=C(Nc1ccccc1O)c1ccc(Oc2cccc(C(=O)Nc3ccccc3O)c2)cc1 [MMV665888]         HepG2            3.60
2  COc1ccc(-c2nc(NC(=O)Cc3ccc4c(c3)OCCO4)sc2C)cc1 [MMV019719]         HepG2          123.96
3  CCN(CC)CCn1c(=N)n(CC(O)c2ccc(Cl)c(Cl)c2)c2ccccc21.Cl (stereo not drawn) [MMV000248]         HepG2           67.45
4  c1cc(-c2cnc3ccc(-c4ccc(N5CCOCC5)cc4)nn23)ccn1 [MMV668311]         HepG2          106.65

Fill in the blank: the reported EC50 fold shift compared to asexual stage: Hepatocyte Toxicity of Cc1cc(Nc2ccc(OCc3ccccc3)cc2)nc2cc(O)ccc12 [MMV007181] is ____.
22.98

Fill in the blank: the reported EC50 fold shift compared to asexual stage: Hepatocyte Toxicity of Nc1ncc(-c2cn[nH]c2)cc1-c1nc2ccc(F)cc2[nH]1 [MMV023367] is ____.
14.00

Fill in the blank: the reported EC50 fold shift compared to asexual stage: Hepatocyte Toxicity of OC(CNC1CCCCC1)Cn1c2ccc(I)cc2c2cc(I)ccc21 (stereo not drawn) [MMV665882] is ____.
182.26

Fill in the blank: the reported EC50 fold shift compared to asexual stage: Hepatocyte Toxicity of CC(C)(C)OC(=O)N1CCN(c2ccccc2NC(=O)c2cccc(C(F)(F)F)c2Oc2ccc(F)cc2)CC1 [MMV030666] is ____.
20.93

Fill in the blank: the reported EC50 fold shift compared to asexual stage: Hepatocyte Toxicity of Cc1ccc(Oc2ncccc2C(=O)Cc2cccc3cccnc23)c(C)c1 [MMV020746] is ____.
415.26
